Reference source for all entries: the kinase profiling compilation of Christmann-Franck et al. (2016)

target: NEK3 (human); assay: KINOMEscan competition binding; conditions: compound 10.0 µM
The entries below come with measured kinase still bound, per cent of control values attached.
The reply should contain only the number, in %.

Illustrative cases are given below, each with its answer.
CC1=C(C(=O)Nc2cc3cn[nH]c3cc2F)C(c2ccc(C(F)(F)F)cc2)CC(=O)N1 (centres undefined)	100
CC(=O)c1c(C)c2cnc(Nc3ccc(N4CCNCC4)cn3)nc2n(C2CCCC2)c1=O	100
O=c1[nH]c2ccccc2n1C1CCN(Cc2ccc(-c3nc4cc5[nH]cnc5cc4nc3-c3ccccc3)cc2)CC1	84

Shifting focus to the molecule that follows.
response.value for C=CC(=O)Nc1ccc(C(=O)c2sc(Nc3ccc(N4CCN(C)CC4)cc3OC)nc2N)cc1 (field: kinase still bound, per cent of control) = 70

###

target: PTK6 (human); assay: KINOMEscan competition binding; details: compound 10.0 µM
Note to self: use Met only for kinase still bound, per cent of control readings below 4%; a reading exactly at 4% still gets Not met.

Consider COc1cc(C)c(Sc2cnc(NC(=O)c3ccc(CNC(C)C(C)C)cc3)s2)cc1C(=O)N1CCN(C(C)=O)CC1 (centres undefined) . Does its kinase still bound, per cent of control lie strictly below 4%?
Not met

Hi there! Is kinase still bound, per cent of control for CCc1nc(-c2cccc(C)c2)c(-c2ccnc(NC(=O)c3ccccc3)c2)s1 below 4%, do you know?
Not met

Quick check: kinase still bound, per cent of control of Cc1cn(-c2cc(C(=O)Nc3ccc(C)c(NC(=O)c4ccno4)c3)cc(C(F)(F)F)c2)cn1 under 4%?
Not met

Is 4% strictly greater than the molecule's reported kinase still bound, per cent of control? molecule: CCN(CCO)CCCOc1ccc2c(Nc3cc(CC(=O)Nc4cccc(F)c4)[nH]n3)ncnc2c1
Not met

###

Reported kinase still bound, per cent of control by item:
test system: BMX (human), P51813 [V600E]; experiment: KINOMEscan competition binding; details: compound 10.0 µM
Sequence (P51813 whole entry, looked up, stated change not applied): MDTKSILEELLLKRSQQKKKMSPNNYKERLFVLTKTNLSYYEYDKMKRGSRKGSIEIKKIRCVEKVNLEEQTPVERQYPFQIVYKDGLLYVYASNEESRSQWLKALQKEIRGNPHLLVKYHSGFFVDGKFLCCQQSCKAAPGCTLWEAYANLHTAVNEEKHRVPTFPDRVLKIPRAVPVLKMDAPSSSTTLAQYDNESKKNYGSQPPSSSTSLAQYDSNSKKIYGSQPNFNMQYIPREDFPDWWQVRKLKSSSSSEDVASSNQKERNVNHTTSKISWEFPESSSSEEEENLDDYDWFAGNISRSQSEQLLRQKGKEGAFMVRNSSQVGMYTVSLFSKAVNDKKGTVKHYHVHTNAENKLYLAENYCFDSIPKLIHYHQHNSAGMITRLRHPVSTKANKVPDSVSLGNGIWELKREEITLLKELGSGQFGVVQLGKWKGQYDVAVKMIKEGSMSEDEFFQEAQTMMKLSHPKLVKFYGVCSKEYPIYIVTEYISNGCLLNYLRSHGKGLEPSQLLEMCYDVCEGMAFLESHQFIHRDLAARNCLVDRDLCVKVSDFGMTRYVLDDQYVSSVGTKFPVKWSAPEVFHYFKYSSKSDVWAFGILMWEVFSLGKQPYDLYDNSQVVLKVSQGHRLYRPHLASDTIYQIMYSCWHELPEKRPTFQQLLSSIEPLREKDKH
Record the value in %, omitting the unit from your answer.

Worked cases, answers included:
C[C@@H](Oc1cc(-n2cnc3ccc(CN4CCN(C)CC4)cc32)sc1C(N)=O)c1ccccc1C(F)(F)F	58
COc1cc(N2CCC(C(N)=O)CC2)ccc1Nc1nc(N)c(Cl)c(Nc2ccccc2S(=O)(=O)C(C)C)n1	100
COc1cc(C(=O)NC2CCN(C)CC2)ccc1Nc1ncc2c(n1)N(C1CCCC1)CCC(=O)N2C(C)C	100

Test item CCN1CCN(Cc2ccc(Nc3ncc4c(n3)N(C)c3ccccc3C(=O)N4C)cc2C(F)(F)F)CC1 ; BMX (human), P51813 [V600E]; reported kinase still bound, per cent of control was 100

###

Listing of recorded kinase still bound, per cent of control by entry.
target: MAP3K5 (human); test: KINOMEscan competition binding; conditions: compound 10.0 µM
Return type: number; implicit unit %.

Some entries whose results are on file:
CCOc1cc(N2CCC(O)CC2)ccc1Nc1ncc2c(n1)N(C)c1ccccc1C(=O)N2C	100
COc1cc(N2CCC(C(N)=O)CC2)ccc1Nc1nc(N)c(Cl)c(Nc2ccccc2S(=O)(=O)C(C)C)n1	100
CCN(CCO)CCCOc1ccc2c(Nc3cc(CC(=O)Nc4cccc(F)c4)[nH]n3)ncnc2c1	100

Reported kinase still bound, per cent of control (MAP3K5 (human)) for entry COc1cc2c(Nc3ccc(NC(=O)c4ccccc4)cc3)ncnc2cc1OCCCN1CCOCC1 is 100

MAP3K5 (human) assay, molecule O=c1[nH]c2ccccc2n1C1CCN(Cc2ccc(-c3nc4cc5[nH]cnc5cc4nc3-c3ccccc3)cc2)CC1 , recorded kinase still bound, per cent of control = 83

Lab note: molecule CCc1nc(-c2cccc(C)c2)c(-c2ccnc(NC(=O)c3ccccc3)c2)s1 tested on MAP3K5 (human); recorded kinase still bound, per cent of control was 100

Recorded kinase still bound, per cent of control for COc1cc(C)c(Sc2cnc(NC(=O)c3ccc(CNC(C)C(C)C)cc3)s2)cc1C(=O)N1CCN(C(C)=O)CC1 (configuration not stated) on MAP3K5 (human) was 100

Per the reported MAP3K5 (human) data, COc1cc2ncnc(Nc3cccc(Cl)c3)c2cc1OC has kinase still bound, per cent of control of 74

I looked up CCN1CCN(Cc2ccc(NC(=O)c3ccc(C)c(/C=C/c4cnc5[nH]ccc5c4OC)c3)cc2C(F)(F)F)CC1 and its kinase still bound, per cent of control for MAP3K5 (human) was 35

Record N#Cc1cc(-c2ccnc(Nc3ccc(-n4cnc(-c5cccnc5)n4)cc3)n2)cc(N2CCOCC2)c1 ; system MAP3K5 (human); kinase still bound, per cent of control = 100

Summary line: C=CC(=O)Nc1ccc(C(=O)c2sc(Nc3ccc(N4CCN(C)CC4)cc3OC)nc2N)cc1 , MAP3K5 (human), reported kinase still bound, per cent of control = 100

Log: MAP3K5 (human), molecule COc1ccc(N(C(=O)Oc2cc(C(=O)Nc3cccc(C(F)(F)F)c3)ccc2C)c2ccnc(Nc3ccc(N4CCN(C)CC4)cc3)n2)c(OC)c1 , kinase still bound, per cent of control = 100

Entry Cc1cn(-c2cc(C(=O)Nc3ccc(C)c(NC(=O)c4ccno4)c3)cc(C(F)(F)F)c2)cn1 ; assay system MAP3K5 (human); kinase still bound, per cent of control recorded at 100

Record CC1=C(C(=O)Nc2cc3cn[nH]c3cc2F)C(c2ccc(C(F)(F)F)cc2)CC(=O)N1 (configuration not stated) ; system MAP3K5 (human); kinase still bound, per cent of control = 100

Tested on MAP3K5 (human): CNC(=O)Nc1ccc(-c2nc(N3CC4CCC(C3)O4)c3cnn(C4CCC5(CC4)OCCO5)c3n2)cc1 . Observed kinase still bound, per cent of control: 85

Item CCCS(=O)(=O)Nc1ccc(F)c(C(=O)c2c[nH]c3ncc(Cl)cc23)c1F was tested on MAP3K5 (human); the reported kinase still bound, per cent of control is 74

The measured kinase still bound, per cent of control that N#C/C(=C1/Nc2ccccc2S1)c1ccnc(NCCc2cccnc2)n1 showed for MAP3K5 (human) is 100

###

target: UniProt:P80192; experiment: KINOMEscan competition binding; settings: compound 10.0 µM
Sequence (P80192 whole entry, looked up): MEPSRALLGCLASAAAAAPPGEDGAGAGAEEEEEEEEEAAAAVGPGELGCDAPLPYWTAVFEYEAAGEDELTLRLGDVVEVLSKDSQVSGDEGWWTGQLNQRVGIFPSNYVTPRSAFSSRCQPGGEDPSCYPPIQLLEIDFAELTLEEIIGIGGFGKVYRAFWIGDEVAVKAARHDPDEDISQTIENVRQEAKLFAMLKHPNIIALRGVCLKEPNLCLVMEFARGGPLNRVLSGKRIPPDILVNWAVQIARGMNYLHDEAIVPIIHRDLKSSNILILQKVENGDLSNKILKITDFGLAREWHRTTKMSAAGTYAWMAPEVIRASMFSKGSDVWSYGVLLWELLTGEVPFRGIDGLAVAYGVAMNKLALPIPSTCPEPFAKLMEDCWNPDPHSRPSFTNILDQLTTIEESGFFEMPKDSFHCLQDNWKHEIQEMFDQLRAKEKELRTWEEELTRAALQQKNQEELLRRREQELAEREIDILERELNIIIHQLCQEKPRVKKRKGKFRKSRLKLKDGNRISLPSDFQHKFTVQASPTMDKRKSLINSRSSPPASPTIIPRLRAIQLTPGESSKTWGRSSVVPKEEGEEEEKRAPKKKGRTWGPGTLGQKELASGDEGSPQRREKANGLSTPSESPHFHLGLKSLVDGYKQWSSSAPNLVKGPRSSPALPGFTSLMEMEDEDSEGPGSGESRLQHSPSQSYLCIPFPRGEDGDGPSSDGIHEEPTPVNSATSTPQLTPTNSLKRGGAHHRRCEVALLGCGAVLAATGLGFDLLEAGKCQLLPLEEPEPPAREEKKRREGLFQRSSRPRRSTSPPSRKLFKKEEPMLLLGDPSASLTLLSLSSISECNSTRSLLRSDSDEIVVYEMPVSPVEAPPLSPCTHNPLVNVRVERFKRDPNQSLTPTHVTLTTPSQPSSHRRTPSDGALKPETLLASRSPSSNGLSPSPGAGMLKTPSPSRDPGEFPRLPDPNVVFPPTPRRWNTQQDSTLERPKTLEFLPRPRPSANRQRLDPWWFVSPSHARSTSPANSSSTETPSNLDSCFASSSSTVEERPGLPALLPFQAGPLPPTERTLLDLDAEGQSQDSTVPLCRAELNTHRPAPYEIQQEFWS
A collection of compounds and their measured kinase still bound, per cent of control
The response must be a number in % with no trailing unit.

Examples from the recorded data:
CCOc1cc(N2CCC(O)CC2)ccc1Nc1ncc2c(n1)N(C)c1ccccc1C(=O)N2C	100
CCN1CCN(Cc2ccc(NC(=O)c3ccc(C)c(/C=C/c4cnc5[nH]ccc5c4OC)c3)cc2C(F)(F)F)CC1	1.4
CCc1nc(-c2cccc(C)c2)c(-c2ccnc(NC(=O)c3ccccc3)c2)s1	94

# next compound below
Field kinase still bound, per cent of control (UniProt:P80192), entry CCN(CCO)CCCOc1ccc2c(Nc3cc(CC(=O)Nc4cccc(F)c4)[nH]n3)ncnc2c1 : 98

###

// kinase still bound, per cent of control lookup, one value per entry
target: PKN1 (human); assay: KINOMEscan competition binding; details: compound 10.0 µM
In your response, put the unit directly after the numeric value.

COc1cc2ncnc(Nc3cccc(Cl)c3)c2cc1OC	94%

The compound listed as N#Cc1cc(-c2ccnc(Nc3ccc(-n4cnc(-c5cccnc5)n4)cc3)n2)cc(N2CCOCC2)c1 shows kinase still bound, per cent of control equal to 48%

kinase still bound, per cent of control reported for this compound CNC(=O)Nc1ccc(-c2nc(N3CC4CCC(C3)O4)c3cnn(C4CCC5(CC4)OCCO5)c3n2)cc1 : 100%

###

target: AAK1 (human); test: KINOMEscan competition binding; conditions: compound 10.0 µM
test_readout: kinase still bound, per cent of control
Just so you know, I need the unit written after the number.

Consider the reported kinase still bound, per cent of control for these compounds:
Cc1cn(-c2cc(C(=O)Nc3ccc(C)c(NC(=O)c4ccno4)c3)cc(C(F)(F)F)c2)cn1	100%
N#Cc1cc(-c2ccnc(Nc3ccc(-n4cnc(-c5cccnc5)n4)cc3)n2)cc(N2CCOCC2)c1	5.4%
COc1cc(N2CCC(C(N)=O)CC2)ccc1Nc1nc(N)c(Cl)c(Nc2ccccc2S(=O)(=O)C(C)C)n1	100%

Record CCN1CCN(Cc2ccc(NC(=O)c3ccc(C)c(/C=C/c4cnc5[nH]ccc5c4OC)c3)cc2C(F)(F)F)CC1 ; system AAK1 (human); kinase still bound, per cent of control = 26%

Entry N#C/C(=C1/Nc2ccccc2S1)c1ccnc(NCCc2cccnc2)n1 under AAK1 (human) had kinase still bound, per cent of control of 10%

###

target: PDGFRB (human) (UniProt P09619); test: KINOMEscan competition binding; conditions: compound 10.0 µM
Sequence (P09619 whole entry, looked up): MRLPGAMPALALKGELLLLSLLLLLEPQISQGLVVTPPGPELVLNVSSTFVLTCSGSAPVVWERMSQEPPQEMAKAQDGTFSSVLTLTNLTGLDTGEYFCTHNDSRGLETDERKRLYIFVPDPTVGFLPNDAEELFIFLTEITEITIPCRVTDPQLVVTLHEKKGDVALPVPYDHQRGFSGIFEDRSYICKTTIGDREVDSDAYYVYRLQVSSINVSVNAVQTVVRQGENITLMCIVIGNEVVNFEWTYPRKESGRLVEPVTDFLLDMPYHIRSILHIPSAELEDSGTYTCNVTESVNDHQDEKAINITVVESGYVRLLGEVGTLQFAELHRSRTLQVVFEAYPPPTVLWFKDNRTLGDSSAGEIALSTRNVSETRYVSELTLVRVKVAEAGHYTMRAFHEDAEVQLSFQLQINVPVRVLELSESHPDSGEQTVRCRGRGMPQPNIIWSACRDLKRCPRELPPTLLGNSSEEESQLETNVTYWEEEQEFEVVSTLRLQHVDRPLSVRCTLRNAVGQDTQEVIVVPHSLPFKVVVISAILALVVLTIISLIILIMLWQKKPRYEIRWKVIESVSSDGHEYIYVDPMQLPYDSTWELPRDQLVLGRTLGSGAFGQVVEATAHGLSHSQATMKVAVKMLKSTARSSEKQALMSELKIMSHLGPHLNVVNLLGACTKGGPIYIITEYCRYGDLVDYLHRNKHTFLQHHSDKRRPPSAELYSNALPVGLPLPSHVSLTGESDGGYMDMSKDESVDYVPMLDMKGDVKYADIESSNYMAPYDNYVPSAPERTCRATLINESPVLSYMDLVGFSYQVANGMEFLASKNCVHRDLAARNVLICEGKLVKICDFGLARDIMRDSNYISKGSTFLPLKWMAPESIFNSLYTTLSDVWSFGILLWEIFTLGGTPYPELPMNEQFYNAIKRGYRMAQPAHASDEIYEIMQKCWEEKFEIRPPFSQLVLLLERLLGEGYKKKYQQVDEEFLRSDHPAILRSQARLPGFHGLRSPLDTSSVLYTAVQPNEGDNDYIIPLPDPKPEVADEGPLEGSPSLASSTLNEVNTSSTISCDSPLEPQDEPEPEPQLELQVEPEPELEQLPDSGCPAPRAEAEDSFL
test_readout: kinase still bound, per cent of control
Output should be the measured figure followed by the unit it is expressed in.

COc1cc2c(Nc3ccc(NC(=O)c4ccccc4)cc3)ncnc2cc1OCCCN1CCOCC1	1.1%
COc1cc(N2CCC(C(N)=O)CC2)ccc1Nc1nc(N)c(Cl)c(Nc2ccccc2S(=O)(=O)C(C)C)n1	100%
COc1cc2ncnc(Nc3cccc(Cl)c3)c2cc1OC	30%

// kinase still bound, per cent of control value for C=CC(=O)Nc1ccc(C(=O)c2sc(Nc3ccc(N4CCN(C)CC4)cc3OC)nc2N)cc1 : 54%

Lab note: COc1cc(C)c(Sc2cnc(NC(=O)c3ccc(CNC(C)C(C)C)cc3)s2)cc1C(=O)N1CCN(C(C)=O)CC1 (stereo not given) gave kinase still bound, per cent of control of 100%
